biological target: human FPR1 (Homo sapiens (Human), UniProt P21462); assay: FPR1 cyclic adenosine monophosphate (cAMP) assay; settings: CHO cells overexpressing human FPR1; forskolin 10 µM; inhibition of cAMP production; read-out: hFPR1 cAMP EC50
Sequence (P21462 whole entry): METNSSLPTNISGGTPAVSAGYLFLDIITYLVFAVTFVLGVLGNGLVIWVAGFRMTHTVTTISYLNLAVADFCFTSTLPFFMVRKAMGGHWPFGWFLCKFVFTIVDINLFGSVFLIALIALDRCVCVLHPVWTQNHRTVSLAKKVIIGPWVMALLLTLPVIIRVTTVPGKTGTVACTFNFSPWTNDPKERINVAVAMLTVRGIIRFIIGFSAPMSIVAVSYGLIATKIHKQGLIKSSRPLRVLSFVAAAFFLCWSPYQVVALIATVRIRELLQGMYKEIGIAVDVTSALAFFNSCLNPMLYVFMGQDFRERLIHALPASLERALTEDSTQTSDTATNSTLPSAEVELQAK
recorded metric: EC50

molecule: COc1cc(F)c([C@@H]2CN(c3nc(N4C(=O)CC[C@H]4CO)ccc3F)C(=O)[C@H]2NC(=O)c2ccc(OC(F)F)cc2)c(F)c1
measured on: human FPR1 (Homo sapiens (Human), UniProt P21462)
recorded metric: EC50
observed value: 410 nM
--
molecule: COc1ccc([C@@H]2CN(c3cccn(CC(C)OC)c3=O)C(=O)[C@H]2NC(=O)c2ccc(OC(F)(F)F)cc2)c(F)c1 (stereo partly shown)
measured on: human FPR1 (Homo sapiens (Human), UniProt P21462)
recorded metric: EC50
observed value: 1 nM
--
molecule: COc1cc(F)c([C@@H]2CN(c3c(C)ccn(Cc4cc(C)no4)c3=O)C(=O)[C@H]2NC(=O)c2ccc(OC(F)F)cc2)c(F)c1
measured on: human FPR1 (Homo sapiens (Human), UniProt P21462)
recorded metric: EC50
observed value: 5.5 nM
--
molecule: COc1cc(F)c([C@@H]2CN(c3ccnn(CCC(F)(F)F)c3=O)C(=O)[C@H]2NC(=O)c2ccc(OC(F)F)cc2)c(F)c1
measured on: human FPR1 (Homo sapiens (Human), UniProt P21462)
recorded metric: EC50
observed value: 18 nM
--
molecule: COc1cc(F)c([C@@H]2CN(c3nccc(N4CCN5CCCC5C4)c3C(F)(F)F)C(=O)[C@H]2NC(=O)c2ccc(Cl)cc2)c(F)c1 (stereo partly shown)
measured on: human FPR1 (Homo sapiens (Human), UniProt P21462)
recorded metric: EC50
observed value: 2200 nM
--
molecule: COc1cc(F)c([C@@H]2CN(c3cccc(N4CCN(S(C)(=O)=O)CC4)n3)C(=O)[C@H]2NC(=O)c2ccc(OC(F)F)cc2)c(F)c1
measured on: human FPR1 (Homo sapiens (Human), UniProt P21462)
recorded metric: EC50
observed value: > 5000 nM
--
molecule: COc1cc(F)c([C@@H]2CN(c3cccn4ccnc34)C(=O)[C@H]2NC(=O)c2ccc(Cl)cc2)c(F)c1
measured on: human FPR1 (Homo sapiens (Human), UniProt P21462)
recorded metric: EC50
observed value: 480 nM
--
molecule: COc1cc(F)c([C@@H]2CN(c3nc(N4CCCC4=O)ccc3F)C(=O)[C@H]2NC(=O)c2ccc(OC(F)F)cc2)c(F)c1
measured on: human FPR1 (Homo sapiens (Human), UniProt P21462)
recorded metric: EC50
observed value: 26 nM
--
molecule: COc1cc(F)c([C@@H]2CN(c3c(C)ccn(CC4CCO4)c3=O)C(=O)[C@H]2NC(=O)c2ccc(OC(F)F)cc2)c(F)c1 (stereo partly shown) [Example 616]
measured on: human FPR1 (Homo sapiens (Human), UniProt P21462)
recorded metric: EC50
observed value: 20 nM
--
molecule: COc1ccc([C@@H]2CN(c3cccn(CC(F)F)c3=O)C(=O)[C@H]2NC(=O)c2ccc(OC(F)F)cc2)cc1
measured on: human FPR1 (Homo sapiens (Human), UniProt P21462)
recorded metric: EC50
observed value: 16 nM
--
molecule: COCC(CO)n1ccc(C)c(N2C[C@@H](c3ccc(OC)cc3)[C@H](NC(=O)c3ccc(OC(F)(F)F)cc3)C2=O)c1=O (stereo partly shown) [Example 563]
measured on: human FPR1 (Homo sapiens (Human), UniProt P21462)
recorded metric: EC50
observed value: 2.3 nM
--
molecule: COc1ccc([C@@H]2CN(c3c(C)ccn(CC(F)F)c3=O)C(=O)[C@H]2NC(=O)c2ccc(Cl)cc2)cc1
measured on: human FPR1 (Homo sapiens (Human), UniProt P21462)
recorded metric: EC50
observed value: 3 nM
--
molecule: COc1cc(N2C[C@@H](C)N(C)[C@@H](C)C2)nc(N2C[C@@H](c3c(F)cc(OC)cc3F)[C@H](NC(=O)c3ccc(Cl)cc3)C2=O)c1
measured on: human FPR1 (Homo sapiens (Human), UniProt P21462)
recorded metric: EC50
observed value: > 10000 nM

Ref: patent US20230348426A1
